Target: T1, HCV Core1-169 (hepatitis C virus (HCV-1), UniProt P26664 1-169)
T1 sequence: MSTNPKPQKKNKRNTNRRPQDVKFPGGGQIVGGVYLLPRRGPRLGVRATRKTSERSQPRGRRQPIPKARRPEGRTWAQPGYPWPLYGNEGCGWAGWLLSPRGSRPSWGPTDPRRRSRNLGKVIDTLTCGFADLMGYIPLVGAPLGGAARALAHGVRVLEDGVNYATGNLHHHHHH
Assay: SPR sandwich, capture mAb C11-14
Catalogue of expected percent binding readings, one per entry.

These solved cases illustrate the format of a correct answer.
binder="HCV 208B-911 (antibody, V domains shown) VH: QVHLQQPGAELVRPGVSVKLSCKASGYTFTTYSINWMKQRPGQGLEWIGNIYPSTSHTNYNQKFRDKATMTVDKSSSTAYMQLSSPTSEDSAVYYCTINAYSMDYWGQGTSVTVSS VL: QIVLTQSPEIMSASPGEKVTITCSASSSVSFMYWFQQKPGTSPKLWIYITSNLASGVPTRFSGSGSGTSYSLTISRMEAEDAATYYCQQRSSFPYTFGGGTKLEMKR" reportedendpoint="expected percent binding" measuredresult="≤ 1%"
binder="HCV 208B-517 (antibody, V domains shown) VH: QVQLKQSGPGLVQPSQSLSITCTVSGFSLITHGVHWVRQSPGKGLEWLGVIWSGGSTDYNAAFISRLSISKDTSKSQVFLKMSSLQADDTAIYYCARNGGATAFDYWGQGTTLTVSS VL: DIVMTQSPATLSVTPGDRVSLSCRASQSISDYLHWYQQKSHESPRLLIKYASQSISGIPSRFRGSGSGSHFTLSINSVEPEDVGVYYCQNGHSFPWTFGGGTKLEIKR" reportedendpoint="expected percent binding" measuredresult="≤ 1%"

// query Recorded expected percent binding for HCV 208B-826 (antibody, V domains shown) VH: DVQLVESGGGLVQAGGSRKLSCAASGFPFSSFGMHWVRQAPEKGLEWVASISSRTSKIYYADNLKGRFTISRDNPKNTLFLQMTSLGSEDTAMYYCVRSVFGNSYWFFDVWGAGTTVTVSS VL: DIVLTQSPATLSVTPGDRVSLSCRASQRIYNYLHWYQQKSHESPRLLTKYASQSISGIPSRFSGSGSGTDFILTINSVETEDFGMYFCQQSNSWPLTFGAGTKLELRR , please?
// result ≤ 1%
